- System: SARS-CoV-2 (2019-nCoV-WIV04)
- Type: cell-based
- Measurement parameters: 30% human serum, Vero E6
Endpoint label: EC50

> print(dat)
                            compound.smiles  endpoint.label  reported.result
1  O=C[C@H](C[C@@H]1CCNC1=O)NC(=O)[C@H](CC1CCCCC1)NC(=O)c1cc2ccccc2[nH]1            EC50          2.57 µM

---

- Test system: Vero E6 cells
- Measurement parameters: CCK8, with P-gp inhibitor CP-100356
Endpoint label: CC50

> print(dat)
                            compound.smiles  endpoint.label  reported.result
1  O=C[C@H](C[C@@H]1CCNC1=O)NC(=O)[C@H](CC1CCCCC1)NC(=O)c1cc2ccccc2[nH]1            CC50           142 µM
